Recorded viability, T/C by entry
test system: 695427-040-R-J1-PDC complex spheroid viability; experiment: Anticancer human tumor 695427-040-R-J1-PDC patient-derived colon adenocarcinoma cell line growth inhibition [POLQ]; settings: second compound 0.316 µM; first compound 0.0316 µM; stronger effect = lower value
Enter your answer as a number in %; do not include the unit.

• COc1cccc(OCCCN)c1-c1cc(Nc2cnc(C#N)cn2)n[nH]1 + COC1C(OC(N)=O)C(O)C(Oc2ccc3c(O)c(NC(=O)c4ccc(O)c(CC=C(C)C)c4)c(=O)oc3c2C)OC1(C)C = 85
• C=CCn1c(=O)c2cnc(Nc3ccc(N4CCN(C)CC4)cc3)nc2n1-c1cccc(C(C)(C)O)n1 + Nc1ccc(C#CCN(C(=O)Cc2ncc(C(F)(F)F)cc2C(F)(F)F)c2ccc(F)cc2)nn1 = 101
• COc1cc2cc(C(=O)CCC(=O)O)sc2cc1OC + Nc1ccc(C#CCN(C(=O)Cc2ncc(C(F)(F)F)cc2C(F)(F)F)c2ccc(F)cc2)nn1 = 111

Input: Need viability, T/C, item CC1COCCN1c1cc(-c2ccnn2C)c2ccnc(-c3ccn[nH]3)c2n1 (stereo unspecified) + COC1C(OC(N)=O)C(O)C(Oc2ccc3c(O)c(NC(=O)c4ccc(O)c(CC=C(C)C)c4)c(=O)oc3c2C)OC1(C)C
Output: 104

Input: Need viability, T/C, item COc1cc2cc(C(=O)CCC(=O)O)sc2cc1OC + Cc1cccc(N(C)C(=O)C2C(O)CCN2c2nc(C)cc(C(F)(F)F)c2C#N)c1
Output: 112

Input: Need viability, T/C, item CCCS(=O)(=O)Nc1ccc(F)c(C(=O)c2c[nH]c3ncc(-c4ccc(Cl)cc4)cc23)c1F + Cc1cccc(N(C)C(=O)C2C(O)CCN2c2nc(C)cc(C(F)(F)F)c2C#N)c1
Output: 101

Input: Need viability, T/C, item CCCS(=O)(=O)Nc1ccc(F)c(C(=O)c2c[nH]c3ncc(-c4ccc(Cl)cc4)cc23)c1F + COC1C(OC(N)=O)C(O)C(Oc2ccc3c(O)c(NC(=O)c4ccc(O)c(CC=C(C)C)c4)c(=O)oc3c2C)OC1(C)C
Output: 106

Input: Need viability, T/C, item CC1COCCN1c1cc(C2(S(C)(=N)=O)CC2)nc(-c2ccnc3[nH]ccc23)n1 (stereo unspecified) + Cc1cccc(N(C)C(=O)C2C(O)CCN2c2nc(C)cc(C(F)(F)F)c2C#N)c1
Output: 105

Input: Need viability, T/C, item CNCc1ccc(-c2[nH]c3cc(F)cc4c3c2CCNC4=O)cc1 + COC1C(OC(N)=O)C(O)C(Oc2ccc3c(O)c(NC(=O)c4ccc(O)c(CC=C(C)C)c4)c(=O)oc3c2C)OC1(C)C
Output: 101

Input: Need viability, T/C, item COc1cccc2c1C(=O)c1c(O)c3c(c(O)c1C2=O)CC(O)(C(=O)CO)CC3OC1CC(N)C(O)C(C)O1 (stereo unspecified) + Cc1cccc(N(C)C(=O)C2C(O)CCN2c2nc(C)cc(C(F)(F)F)c2C#N)c1
Output: 103

Input: Need viability, T/C, item O=C(c1cc(Cc2n[nH]c(=O)c3ccccc23)ccc1F)N1CCN(C(=O)C2CC2)CC1 + Nc1ccc(C#CCN(C(=O)Cc2ncc(C(F)(F)F)cc2C(F)(F)F)c2ccc(F)cc2)nn1
Output: 99.9

Input: Need viability, T/C, item COc1cccc(OCCCN)c1-c1cc(Nc2cnc(C#N)cn2)n[nH]1 + Nc1ccc(C#CCN(C(=O)Cc2ncc(C(F)(F)F)cc2C(F)(F)F)c2ccc(F)cc2)nn1
Output: 80.9

Input: Need viability, T/C, item CCc1cc2c(N3CCc4c(cc(Cn5ccnc5)cc4-c4cn(C)nc4C(F)(F)F)C3=O)ccnc2c(OC)n1 + Cc1cccc(N(C)C(=O)C2C(O)CCN2c2nc(C)cc(C(F)(F)F)c2C#N)c1
Output: 105

Input: Need viability, T/C, item Nc1ccn(C2OC(CO)C(O)C2(F)F)c(=O)n1 (stereo unspecified) + COC1C(OC(N)=O)C(O)C(Oc2ccc3c(O)c(NC(=O)c4ccc(O)c(CC=C(C)C)c4)c(=O)oc3c2C)OC1(C)C
Output: 96.2

Input: Need viability, T/C, item CC(C)n1c(=O)n(C)c2cnc3cc(F)c(-c4ccc(OCCCN5CCCCC5)nc4)cc3c21 + Cc1cccc(N(C)C(=O)C2C(O)CCN2c2nc(C)cc(C(F)(F)F)c2C#N)c1
Output: 104

Input: Need viability, T/C, item CC1COCCN1c1cc(-c2ccnn2C)c2ccnc(-c3ccn[nH]3)c2n1 (stereo unspecified) + Nc1ccc(C#CCN(C(=O)Cc2ncc(C(F)(F)F)cc2C(F)(F)F)c2ccc(F)cc2)nn1
Output: 105

Input: Need viability, T/C, item C=CCn1c(=O)c2cnc(Nc3ccc(N4CCN(C)CC4)cc3)nc2n1-c1cccc(C(C)(C)O)n1 + COC1C(OC(N)=O)C(O)C(Oc2ccc3c(O)c(NC(=O)c4ccc(O)c(CC=C(C)C)c4)c(=O)oc3c2C)OC1(C)C
Output: 103

###

tested on: 695427-040-R-J1-PDC complex spheroid viability; experiment: Anticancer human tumor 695427-040-R-J1-PDC cell line growth inhibition [POLQ]; conditions: second compound 0.316 µM; first compound 1 µM; stronger effect = lower value;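 note: spheroids exposed to compounds for seven days; 100% = DMSO vehicle control viability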
Recorded viability, T/C by entry

Below are worked cases with known answers.
- CCc1cc2c(N3CCc4c(cc(Cn5ccnc5)cc4-c4cn(C)nc4C(F)(F)F)C3=O)ccnc2c(OC)n1 + COC1C(OC(N)=O)C(O)C(Oc2ccc3c(O)c(NC(=O)c4ccc(O)c(CC=C(C)C)c4)c(=O)oc3c2C)OC1(C)C: 101%
- COc1cccc(OCCCN)c1-c1cc(Nc2cnc(C#N)cn2)n[nH]1 + COC1C(OC(N)=O)C(O)C(Oc2ccc3c(O)c(NC(=O)c4ccc(O)c(CC=C(C)C)c4)c(=O)oc3c2C)OC1(C)C: 39.2%
- CCCS(=O)(=O)Nc1ccc(F)c(C(=O)c2c[nH]c3ncc(-c4ccc(Cl)cc4)cc23)c1F + Cc1cccc(N(C)C(=O)C2C(O)CCN2c2nc(C)cc(C(F)(F)F)c2C#N)c1: 109%
- C=CC(=O)N1CCN(c2nc(=O)n(-c3c(C)ccnc3C(C)C)c3nc(-c4c(O)cccc4F)c(F)cc23)C(C)C1 (stereo not given) + Cc1cccc(N(C)C(=O)C2C(O)CCN2c2nc(C)cc(C(F)(F)F)c2C#N)c1: 104%
- CCc1cc2c(N3CCc4c(cc(Cn5ccnc5)cc4-c4cn(C)nc4C(F)(F)F)C3=O)cc(C)nc2c(OC)n1 + Cc1cccc(N(C)C(=O)C2C(O)CCN2c2nc(C)cc(C(F)(F)F)c2C#N)c1: 105%
- COc1cc2cc(C(=O)CCC(=O)O)sc2cc1OC + Cc1cccc(N(C)C(=O)C2C(O)CCN2c2nc(C)cc(C(F)(F)F)c2C#N)c1: 108%
- COc1cc2cc(C(=O)CCC(=O)O)sc2cc1OC + COC1C(OC(N)=O)C(O)C(Oc2ccc3c(O)c(NC(=O)c4ccc(O)c(CC=C(C)C)c4)c(=O)oc3c2C)OC1(C)C: 107%
- CC1COCCN1c1cc(-c2ccnn2C)c2ccnc(-c3ccn[nH]3)c2n1 (stereo not given) + COC1C(OC(N)=O)C(O)C(Oc2ccc3c(O)c(NC(=O)c4ccc(O)c(CC=C(C)C)c4)c(=O)oc3c2C)OC1(C)C: 51.2%
- C#Cc1c(F)ccc2cc(O)cc(-c3ncc4c(N5CC6CCC(C5)N6)nc(OCC56CCCN5CC(F)C6)nc4c3F)c12 (stereo not given) + Nc1ccc(C#CCN(C(=O)Cc2ncc(C(F)(F)F)cc2C(F)(F)F)c2ccc(F)cc2)nn1: 101%
- O=C(Nc1ccc(O)c(NS(=O)(=O)c2ccc(F)cc2)c1)c1ccc(-c2ccccc2)cc1 + Nc1ccc(C#CCN(C(=O)Cc2ncc(C(F)(F)F)cc2C(F)(F)F)c2ccc(F)cc2)nn1: 101%

Input: Need viability, T/C, item CNCc1ccc(-c2[nH]c3cc(F)cc4c3c2CCNC4=O)cc1 + Cc1cccc(N(C)C(=O)C2C(O)CCN2c2nc(C)cc(C(F)(F)F)c2C#N)c1
Output: 103%

Input: Need viability, T/C, item CCc1c2c(nc3ccc(O)cc13)-c1cc3c(c(=O)n1C2)COC(=O)[C@]3(O)CC + COC1C(OC(N)=O)C(O)C(Oc2ccc3c(O)c(NC(=O)c4ccc(O)c(CC=C(C)C)c4)c(=O)oc3c2C)OC1(C)C
Output: 50.5%

Input: Need viability, T/C, item O=C(c1cc(Cc2n[nH]c(=O)c3ccccc23)ccc1F)N1CCN(C(=O)C2CC2)CC1 + COC1C(OC(N)=O)C(O)C(Oc2ccc3c(O)c(NC(=O)c4ccc(O)c(CC=C(C)C)c4)c(=O)oc3c2C)OC1(C)C
Output: 104%

Input: Need viability, T/C, item C=CC(=O)N1CCN(c2nc(=O)n(-c3c(C)ccnc3C(C)C)c3nc(-c4c(O)cccc4F)c(F)cc23)C(C)C1 (stereo not given) + COC1C(OC(N)=O)C(O)C(Oc2ccc3c(O)c(NC(=O)c4ccc(O)c(CC=C(C)C)c4)c(=O)oc3c2C)OC1(C)C
Output: 116%

Input: Need viability, T/C, item C#Cc1c(F)ccc2cc(O)cc(-c3ncc4c(N5CC6CCC(C5)N6)nc(OCC56CCCN5CC(F)C6)nc4c3F)c12 (stereo not given) + COC1C(OC(N)=O)C(O)C(Oc2ccc3c(O)c(NC(=O)c4ccc(O)c(CC=C(C)C)c4)c(=O)oc3c2C)OC1(C)C
Output: 99.2%
